Molecular target: E. coli β-glucuronidase (eβG) (Escherichia coli, UniProt P05804)
Construct: histidine tag (N); made in house; host or cells: E. coli BL21 (DE3)
Sequence (P05804 whole entry): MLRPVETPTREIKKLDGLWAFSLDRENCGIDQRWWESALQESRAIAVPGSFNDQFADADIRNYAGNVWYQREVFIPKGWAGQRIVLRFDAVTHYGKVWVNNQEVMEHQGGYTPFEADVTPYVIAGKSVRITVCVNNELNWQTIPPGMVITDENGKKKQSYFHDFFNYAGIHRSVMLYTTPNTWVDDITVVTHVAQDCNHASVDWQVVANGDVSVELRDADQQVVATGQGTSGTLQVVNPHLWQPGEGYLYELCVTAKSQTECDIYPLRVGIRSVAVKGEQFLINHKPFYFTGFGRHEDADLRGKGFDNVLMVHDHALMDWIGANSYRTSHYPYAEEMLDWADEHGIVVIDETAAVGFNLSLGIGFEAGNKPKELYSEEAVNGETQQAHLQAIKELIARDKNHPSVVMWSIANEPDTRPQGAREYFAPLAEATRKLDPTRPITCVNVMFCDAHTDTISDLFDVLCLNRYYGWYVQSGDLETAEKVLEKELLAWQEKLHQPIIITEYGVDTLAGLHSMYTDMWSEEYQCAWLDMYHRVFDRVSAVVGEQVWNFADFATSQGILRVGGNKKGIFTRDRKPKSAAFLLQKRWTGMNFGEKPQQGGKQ
Test: In vitro βG-activity assay (pNPG hydrolysis), eβG
Type: biochemical
Conditions: 50 μM compound, pH 7.3, percent of activity vs untreated control
READOUT_KIND: eβG activity (%) with 50 μM compound
Answer format: numeric, % implied, no suffix.

MOLECULE: CC(=O)Nc1ccc(S(=O)(=O)Oc2ccc([N+](=O)[O-])cc2)cc1 [Compound 7100]
TESTED_ON: E. coli β-glucuronidase (eβG) (Escherichia coli, UniProt P05804)
READOUT_KIND: eβG activity (%) with 50 μM compound
MEASURE_UNIT: %
MEAS_VALUE: 20.58

# eβG activity (%) with 50 μM compound of CC1(C)CC(O)C(C(O)c2cccc([N+](=O)[O-])c2)C(C)(C)N1 (stereo not shown) [Compound 4021] = 28.56

# eβG activity (%) with 50 μM compound of Cc1ccccc1NC(=O)c1cccc(NC(=O)c2cc(Cl)c(Cl)cc2C(=O)O)c1 [Compound 1306] = 29.20

# eβG activity (%) with 50 μM compound of CCN(CC)S(=O)(=O)c1cccc(N=Nc2c(O)[nH]c(=O)[nH]c2=O)c1 [Compound 9274] = 32.34

---

Recorded eβG activity (%) with 50 μM compound for the following compounds
Biological target: E. coli β-glucuronidase (eβG) (Escherichia coli, UniProt P05804)
Construct: histidine tag (N); made in house; host or cells: E. coli BL21 (DE3)
Experiment: In vitro βG-activity assay (pNPG hydrolysis), eβG
Type: biochemical
Details: 50 μM compound, pH 7.3, percent of activity vs untreated control
Answer format: numeric, % implied, no suffix.

// solved cases for eβG activity (%) with 50 μM compound follow
COMPOUND: Cn1c(O)c(C=NC(Cc2c[nH]c3ccccc23)C(=O)O)c(=O)n(C)c1=O (stereo not drawn)
MEAS_VALUE: 9.33

COMPOUND: COc1ccc(N2C(=O)CC(NC3CCCCNC3=O)C2=O)cc1 (stereo not drawn)
MEAS_VALUE: 44.30

COMPOUND: Cc1cc(/C=C2\SC(=Nc3ccc(F)cc3)NC2=O)c(C)n1-c1ccc(S(N)(=O)=O)cc1
MEAS_VALUE: 3.70

COMPOUND: COc1ccc(Cl)cc1NC(=O)CC(C(=O)O)N1CCNCC1 (stereo not drawn)
MEAS_VALUE: 39.67

# eβG activity (%) with 50 μM compound of CC(CNS(=O)(=O)c1ccc(Cl)cc1)n1cncn1 (stereo not drawn) = 31.70

# eβG activity (%) with 50 μM compound of Cc1cccnc1NCn1c(=O)oc2cc([N+](=O)[O-])ccc21 = 25.14

# eβG activity (%) with 50 μM compound of Cc1cc2nc(C[n+]3cccc(C(N)=O)c3)[nH]c2cc1C = 19.16

# eβG activity (%) with 50 μM compound of CCOC(=O)c1ccc(NC(=S)N2CCN(C)CC2)cc1 = 47.22

# eβG activity (%) with 50 μM compound of Cc1cccc2n(C)c(/C=N/N=C(N)N)c[n+]12 = 29.70

---

Recorded eβG activity (%) with 50 μM compound for the following compounds
Biological target: E. coli β-glucuronidase (eβG) (Escherichia coli, UniProt P05804)
Construct: histidine tag (N); made in house; host or cells: E. coli BL21 (DE3)
Experiment: In vitro βG-activity assay (pNPG hydrolysis), eβG
Format: biochemical
Settings: 50 μM compound, pH 7.3, percent of activity vs untreated control
Answer format: numeric, % implied, no suffix.

// solved cases for eβG activity (%) with 50 μM compound follow
COMPOUND: CC1=C(C)CC(C(=O)Nc2c(C)cccc2C)C(C(=O)O)C1 (stereo not shown)
eβG activity (%) with 50 μM compound: 34.05
--
COMPOUND: O=S(=O)(c1ccc(Br)cc1)N1CCNCC1
eβG activity (%) with 50 μM compound: 33.19
--
COMPOUND: CN1CCN(CC(=O)Nc2c(C#N)cnn2-c2ccccc2)CC1
eβG activity (%) with 50 μM compound: 47.15

Field: next compound
# eβG activity (%) with 50 μM compound of NC(N)=Nc1nc2ccc(Br)cc2c(=O)[nH]1 = 13.68

Hello, the source for this data is paper PMC4370192, in case you need it.
